meta.source: patent US7560471B2

- System: histamine-induced papule (skin vascular permeability)
- assay name: Histamine-induced skin vascular permeability in rats
- Format: in vivo, rat
- test parameters: male Wistar rats, oral, 4 h after administration, inhibition of papule area vs vehicle
measured parameter: papule (4h) % inh a 1 mg/Kg (%)
Answer format: numeric, % implied, no suffix.

Worked set:
CCOCCn1cc(C2CCN(Cc3ccc(OC)c(C(=O)O)c3)CC2)c2ccc(F)cc21 = 89
COCCn1cc(C2CCN(Cc3ccc(OC)c(C(=O)O)c3)CC2)c2ccccc21 = 96
CCOCCn1cc(C2CCN(Cc3ccc(OC)c(C(=O)O)c3)CC2)c2ccccc21 = 88
CCCCn1cc(C2CCN(Cc3ccc(OC)c(C(=O)O)c3)CC2)c2ccccc21 = 100

Next compound, papule (4h) % inh a 1 mg/Kg to be filled in.
Request: Quick one: papule (4h) % inh a 1 mg/Kg of COCCn1cc(C2CCN(Cc3ccc(OC)c(C(=O)O)c3)CC2)c2ccc(F)cc21 ?
Result: 96

###

Hi! I'm sharing some IC50 results obtained with serotonin-5HT2 receptors (Homo sapiens).
Sequence (P28223 whole entry): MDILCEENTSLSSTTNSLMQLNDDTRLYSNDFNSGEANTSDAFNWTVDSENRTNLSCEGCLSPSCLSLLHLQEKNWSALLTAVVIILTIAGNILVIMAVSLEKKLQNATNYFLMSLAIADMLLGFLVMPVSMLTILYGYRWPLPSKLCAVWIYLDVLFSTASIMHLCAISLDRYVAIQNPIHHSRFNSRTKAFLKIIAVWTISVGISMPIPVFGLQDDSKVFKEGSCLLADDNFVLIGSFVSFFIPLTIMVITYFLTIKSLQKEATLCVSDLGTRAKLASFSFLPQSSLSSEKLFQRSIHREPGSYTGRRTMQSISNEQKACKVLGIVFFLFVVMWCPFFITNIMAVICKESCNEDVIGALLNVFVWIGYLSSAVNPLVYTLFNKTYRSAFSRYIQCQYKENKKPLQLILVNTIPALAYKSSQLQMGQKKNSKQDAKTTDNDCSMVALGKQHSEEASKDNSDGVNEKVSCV
Just the number in µM, nothing appended.

CCOCCn1cc(C2CCN(Cc3ccc(OC)c(C(=O)O)c3)CC2)c2ccccc21 = 5.35
CCCCn1cc(C2CCN(Cc3ccc(OC)c(C(=O)O)c3)CC2)c2ccccc21 = 4.5

Request: Reported IC50, molecule CCOCCn1cc(C2CCN(Cc3ccc(OC)c(C(=O)O)c3)CC2)c2ccc(F)cc21 : ____
Result: 4.3

###

Reported values: pIC50 for histamine-H1 receptors (Cavia porcellus, UniProt P31389), one per item.
Keep in mind that pIC50 stands for -log10 of concentration in molar terms.

COCCn1cc(C2CCN(Cc3ccc(OC)c(C(=O)O)c3)CC2)c2ccc(F)cc21 = 6.61
CCOCCn1cc(C2CCN(Cc3ccc(OC)c(C(=O)O)c3)CC2)c2ccc(F)cc21 = 6.80
COCCn1cc(C2CCN(Cc3ccc(OC)c(C(=O)O)c3)CC2)c2ccccc21 = 6.33

Request: Lookup: pIC50 / histamine-H1 receptors (Cavia porcellus, UniProt P31389) / CCCCn1cc(C2CCN(Cc3ccc(OC)c(C(=O)O)c3)CC2)c2ccccc21
Result: 6.89

Request: Same again, this time with CCOCCn1cc(C2CCN(Cc3ccc(OC)c(C(=O)O)c3)CC2)c2ccccc21
Result: 6.84
